Reference source: patent US20230339981A1

Target: GDP-loaded KRAS G12D (Homo sapiens (Human), UniProt P01116, G12D)
Sequence (P01116-2 other isoform, or with tags, fused parts or gaps G12D): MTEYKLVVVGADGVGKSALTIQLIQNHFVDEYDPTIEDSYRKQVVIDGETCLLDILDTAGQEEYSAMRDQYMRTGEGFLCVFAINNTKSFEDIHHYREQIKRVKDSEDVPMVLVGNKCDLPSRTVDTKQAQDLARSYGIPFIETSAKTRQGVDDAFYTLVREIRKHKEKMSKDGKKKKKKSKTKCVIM
Assay: KRAS G12D (GDP) biochemical assay (TR-FRET probe displacement)
Assay type: binding
Settings: 2 hours
observable: IC50 (nM)

C#Cc1c(F)ccc2cccc(-c3nc4c5c(nc(OC[C@@]67CCCN6[C@H](COc6ccnc(C(F)F)n6)CC7)nc5c3F)N3C[C@H]5CC[C@H](N5)[C@H]3CCC4)c12 : 0.09
C#Cc1c(F)ccc2cc(O)cc(-c3nc4c5c(nc(OC[C@@]67CCCN6C[C@H](F)C7)nc5c3F)N3C[C@H]5CC[C@H](N5)[C@H]3[C@H](C)O4)c12 : 0.1
C#Cc1c(F)c(F)cc2cc(O)cc(-c3nc4c5c(nc(OC[C@@]67CCCN6C[C@H](F)C7)nc5c3F)N3C[C@H]5CC[C@H](N5)[C@H]3CO4)c12 : 0.2
C#Cc1c(F)ccc2cc(O)cc(-c3nc4c5c(nc(OCC6(CN7CCC(OC(F)(F)F)CC7)CC6)nc5c3F)N3C[C@H]5CC[C@H](N5)[C@H]3CC4)c12 : 0.2
Fc1cc(-c2nc3c4c(nc(OC[C@@]56CCCN5C[C@H](F)C6)nc4c2F)N2C[C@H]4CC[C@H](N4)[C@H]2CO3)c2ccccc2c1 : 3400
